system: T1, hPD-1-Fc (human, UniProt Q15116 25-167)
T1 construct: domain: IgV domain; also called human PD-1-Fc; not shown: human IgG1 Fc
T1 sequence (Q15116 25-167 limits assumed): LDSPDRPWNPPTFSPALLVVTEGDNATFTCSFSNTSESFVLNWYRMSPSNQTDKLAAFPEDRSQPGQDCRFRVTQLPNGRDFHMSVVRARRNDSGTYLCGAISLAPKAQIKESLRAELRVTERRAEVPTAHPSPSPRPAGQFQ
protocol_summary: ELISA, PD-1-Fc coated
For each of the binders below, state its EC50.
A number alone suffices; assume nM.

For the binder 31B1 (antibody, V domains shown, also called 780_38; 33B1 and 31B2 (apparent misprints)) VH: QVQLVQSGAEVKKPGSSVKVSCKASGGTFSSSVISWVRQAPGQGLEWMGGIIPIFGTANYAQKFQGRVTITADESTSTAYMELSSLRSEDTAVYYCAREGLGCSGGSCYSGYYYGMDVWGQGTTVTVSS VL: DIVMTQSPLSLPVTPGEPASISCRSSQSLLHSNGYNYLDWYLQKPGQSPQLLIYEASSLHSGVPDRFSGSGSGTDFTLKISRVEAEDVGVYYCMQGTHWPYTFGQGTKVEIK , what EC50 is on record?
0.114

For the binder 33C4 (antibody, V domains shown, also called 780_39) VH: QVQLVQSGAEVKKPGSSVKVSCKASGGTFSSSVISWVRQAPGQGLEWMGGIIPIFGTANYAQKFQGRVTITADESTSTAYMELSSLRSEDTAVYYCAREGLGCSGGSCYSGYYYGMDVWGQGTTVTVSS VL: DIVMTQSPLSLPVTPGEPASISCRSSQSLLHSNGYNYLDWYLQKPGQSPQLLIYEASSLHTGVPDRFSGSGSGTDFTLKISRVEAEDVGVYYCMQGSHWPYTFGQGTKLEIK , what EC50 is on record?
0.128

For the binder 38B2 (antibody, V domains shown, 24H9 derivative, IgG; also called 780_54; hPD1 Ab (38B2)) VH: EVQLLESGGGLVQPGGSLRLSCAASGFTFSSYWMSWVRQAPGKGLEWVSAISGSGGSTYYADSVKGRFTISRDNSKNTLYLQMNSLRAEDTAVYYCASSPLQWVDVWGQGTTVTVSS VL: DIQMTQSPSSLSASVGDRVTITCRASESISSWLAWYQQKPGKAPKLLIYDASSLESGVPSRFSGSGSGTDFTLTISSLQPEDFATYYCQQGDSFPFTFGQGTKLEIK , what EC50 is on record?
0.096

For the binder 38A6 (antibody, V domains shown, also called 780_46) VH: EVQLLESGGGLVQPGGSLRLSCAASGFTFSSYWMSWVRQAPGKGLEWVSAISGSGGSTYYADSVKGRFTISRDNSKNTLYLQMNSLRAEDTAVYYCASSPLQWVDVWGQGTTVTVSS VL: DIQMTQSPSSLSASVGDRVTITCRASQDISRWLGWYQQKPGKAPKLLIYAASTLQSGVPSRFSGSGSGTDFTLTISSLQPEDFATYYCQQANSFPFTFGPGTKLEIK , what EC50 is on record?
0.079
